test-system: ecdysteroid receptor complex in Plodia interpunctella (IAL-PID2) nuclear extract (Plodia interpunctella)
Sequence (Q6RVD3 1-541): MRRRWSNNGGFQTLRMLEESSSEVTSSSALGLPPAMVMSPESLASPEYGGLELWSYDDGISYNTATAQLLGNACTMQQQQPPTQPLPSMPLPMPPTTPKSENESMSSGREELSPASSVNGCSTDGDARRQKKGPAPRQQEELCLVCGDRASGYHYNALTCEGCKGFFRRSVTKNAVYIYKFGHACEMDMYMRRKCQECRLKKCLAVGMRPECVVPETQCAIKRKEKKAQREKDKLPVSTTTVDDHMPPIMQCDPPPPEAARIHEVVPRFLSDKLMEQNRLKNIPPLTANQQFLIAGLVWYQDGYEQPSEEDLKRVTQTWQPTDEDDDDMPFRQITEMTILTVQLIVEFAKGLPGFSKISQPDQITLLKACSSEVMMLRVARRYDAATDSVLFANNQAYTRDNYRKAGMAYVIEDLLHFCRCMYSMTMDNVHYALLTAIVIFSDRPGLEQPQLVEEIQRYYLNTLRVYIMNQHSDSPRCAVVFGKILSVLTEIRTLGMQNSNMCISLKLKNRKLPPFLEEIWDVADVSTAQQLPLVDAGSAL
Sequence (Q6IVK1 1-415 partner): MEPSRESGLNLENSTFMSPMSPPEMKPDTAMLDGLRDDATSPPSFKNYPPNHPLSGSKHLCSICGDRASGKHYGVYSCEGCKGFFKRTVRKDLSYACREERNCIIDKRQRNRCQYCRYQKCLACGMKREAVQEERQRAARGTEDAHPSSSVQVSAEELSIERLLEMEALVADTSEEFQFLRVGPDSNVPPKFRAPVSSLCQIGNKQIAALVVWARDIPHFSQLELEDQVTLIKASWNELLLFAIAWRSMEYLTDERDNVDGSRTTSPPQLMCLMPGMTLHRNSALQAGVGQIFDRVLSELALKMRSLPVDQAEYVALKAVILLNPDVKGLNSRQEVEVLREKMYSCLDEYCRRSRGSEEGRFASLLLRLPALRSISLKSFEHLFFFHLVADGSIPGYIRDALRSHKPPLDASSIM
assay-name: Competitive 3H-ponasterone A binding assay, Plodia nuclear ecdysone receptor extract
condition-label: 3H-ponasterone A displacement
assay-metric: Plodia log(1/IC50)
Answers are plain numbers.

>>> readout_value("CCc1c(OC)cccc1C(=O)NN(C(=O)c1cc(Cl)cc(Cl)c1)C(C)(C)C [Ligand 13]")
9.06
>>> readout_value("CCc1c(C(=O)NN(C(=O)c2cc(C)cc(C)c2)C(C)(C)C)ccc2c1OCCO2 [Ligand 7]")
8.78
>>> readout_value("CCc1c(OC)cccc1C(=O)NN(C(=O)c1cccc(OC)c1)C(C)(C)C [Ligand 1]")
8.52

Hi team, please reply with Plodia log(1/IC50) for each item in this list.
1. CCc1c(OC)cccc1C(=O)NN(C(=O)c1cc(F)cc(F)c1)C(C)(C)C [Ligand 4]
2. CCOc1cccc(C(=O)NN(C(=O)c2cc(C)cc(C)c2)C(C)(C)C)c1C [Ligand 6]
3. COc1cccc(C(=O)NN(C(=O)c2cc(C)cc(C)c2)C(C)(C)C)c1C [Ligand 3]
4. Cc1cc(C)cc(C(=O)N(NC(=O)c2ccc3c(c2C)OCCO3)C(C)(C)C)c1 [Ligand 2]
5. COc1cccc(C(=O)NN(C(=O)c2cc(C)cc(C)c2)C(C)(C)C)c1C(C)C [Ligand 11]

Result:
8.51
8.82
9.04
9.14
8.93

Hi team, please reply with Plodia log(1/IC50) for each item in this list.
1. CCc1c(OC)cccc1C(=O)NN(C(=O)c1cc(C)cc(C)c1)C(C)(C)C [Ligand 5]
2. CCOc1cccc(C(=O)NN(C(=O)c2cc(C)cc(C)c2)C(C)(C)C)c1CC [Ligand 12]
3. COc1cccc(C(=O)NN(C(=O)c2cc(Cl)cc(Cl)c2)C(C)(C)C)c1C [Ligand 9]

Result:
1: 9.49; 2: 9.63; 3: 9.00

---

test-system: VgEcR and RXR heterodimeric receptor (pVgRXR) with pIND/luc in CHO cells (Drosophila melanogaster, UniProt P34021, E282G/G283S/G286V)
Construct: host or cells: CHO cells (ATCC CCL-61), transiently transfected or stably transformed with pVgRXR
Sequence (P34021 whole entry E282G/G283S/G286V): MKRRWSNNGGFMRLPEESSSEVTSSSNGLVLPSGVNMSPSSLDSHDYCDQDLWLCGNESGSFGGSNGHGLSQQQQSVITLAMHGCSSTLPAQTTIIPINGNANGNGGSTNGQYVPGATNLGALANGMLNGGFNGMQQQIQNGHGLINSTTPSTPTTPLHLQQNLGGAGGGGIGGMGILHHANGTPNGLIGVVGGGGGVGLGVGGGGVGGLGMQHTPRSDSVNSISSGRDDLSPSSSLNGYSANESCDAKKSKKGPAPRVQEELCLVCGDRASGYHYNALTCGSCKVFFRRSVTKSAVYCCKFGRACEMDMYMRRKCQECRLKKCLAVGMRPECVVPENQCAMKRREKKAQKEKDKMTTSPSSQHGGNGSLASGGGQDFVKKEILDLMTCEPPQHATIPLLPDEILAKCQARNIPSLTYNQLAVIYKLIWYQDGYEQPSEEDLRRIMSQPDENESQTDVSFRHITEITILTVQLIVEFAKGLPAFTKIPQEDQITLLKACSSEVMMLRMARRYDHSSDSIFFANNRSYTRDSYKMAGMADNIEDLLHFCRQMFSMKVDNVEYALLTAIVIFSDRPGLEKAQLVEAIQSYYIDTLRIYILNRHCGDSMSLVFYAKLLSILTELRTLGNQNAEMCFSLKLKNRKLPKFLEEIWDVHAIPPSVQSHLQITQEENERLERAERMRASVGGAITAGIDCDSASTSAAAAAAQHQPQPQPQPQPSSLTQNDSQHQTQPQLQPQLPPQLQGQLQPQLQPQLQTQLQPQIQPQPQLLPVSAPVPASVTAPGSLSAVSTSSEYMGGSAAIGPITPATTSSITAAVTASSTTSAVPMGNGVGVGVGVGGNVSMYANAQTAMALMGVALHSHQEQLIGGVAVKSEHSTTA
Sequence (P19793 whole entry partner): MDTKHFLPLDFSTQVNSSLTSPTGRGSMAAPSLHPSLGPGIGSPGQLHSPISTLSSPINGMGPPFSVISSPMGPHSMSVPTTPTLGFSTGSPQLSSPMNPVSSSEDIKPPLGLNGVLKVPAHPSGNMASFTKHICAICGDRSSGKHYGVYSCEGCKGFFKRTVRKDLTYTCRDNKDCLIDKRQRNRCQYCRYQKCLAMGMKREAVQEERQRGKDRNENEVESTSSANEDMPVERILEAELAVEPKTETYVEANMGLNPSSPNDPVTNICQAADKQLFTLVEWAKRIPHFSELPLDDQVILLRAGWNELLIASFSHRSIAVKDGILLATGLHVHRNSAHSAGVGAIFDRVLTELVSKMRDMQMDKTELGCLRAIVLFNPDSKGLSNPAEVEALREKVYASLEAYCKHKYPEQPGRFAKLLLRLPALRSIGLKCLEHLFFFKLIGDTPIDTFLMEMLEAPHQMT
assay-name: Luciferase gene activation in transiently transfected CHO cells
Assay type: cell-based
condition-label: ligand 10 μM, luciferase
assay-metric: Induction Ratio (RLU in presence and absence of the ligand)
Numbers only.

# count of solved cases: 6
>>> readout_value("CCc1c(OC)cccc1C(=O)NN(C(=O)c1cc(C)cc(C)c1)C(C)(C)C")
8
>>> readout_value("COc1cccc(C(=O)NN(C(=O)c2cc(C)cc(C)c2)C(C)(C)C)c1C")
8
>>> readout_value("CCc1ccc(C(=O)NN(C(=O)c2cc(C)cc(C)c2)C(C)(C)C)cc1 [CE-1, reference compound]")
2
>>> readout_value("CCc1c(OC)cccc1C(=O)NN(C(=O)c1cc(F)cc(F)c1)C(C)(C)C")
6
>>> readout_value("Cc1cc(C)cc(C(=O)N(NC(=O)c2ccc3c(c2C)OCCO3)C(C)(C)C)c1")
5
>>> readout_value("CCOc1cccc(C(=O)NN(C(=O)c2cc(C)cc(C)c2)C(C)(C)C)c1CC")
7

Q: Note down Induction Ratio (RLU in presence and absence of the ligand) recorded for CC(C)CC[C@@H](O)[C@](C)(O)[C@H]1CC[C@@]2(O)C3=CC(=O)[C@@H]4C[C@@H](O)[C@@H](O)C[C@]4(C)[C@H]3CC[C@]12C [CE-4, ponasterone A, reference compound]
Result: 10
